- test-method-notes: aqueous solubility of talnetant
- Type: physicochemical
- run-conditions: aqueous medium, pH 1, simulated gastric fluid
endpoint-name: solubility

CC[C@H](NC(=O)c1c(O)c(-c2ccccc2)nc2ccccc12)c1ccccc1
~30 µg/mL

###

- test-method-notes: aqueous solubility of talnetant
- Assay type: physicochemical
- run-conditions: aqueous medium, aqueous buffer; pH 7.0
endpoint-name: solubility

CC[C@H](NC(=O)c1c(O)c(-c2ccccc2)nc2ccccc12)c1ccccc1 [Talnetant]
~1 µg/mL
